Entries and their measured melting point follow.
Where a name gives a salt, the structure may show the parent alone.

>  <COMPOUND>
Cc1ccc2c3c(ccc2n1)OCC(CN1CCC(c2nc4ccccc4o2)CC1)O3 (stereo not shown)

>  <melting point>
128 to 130 °C

$$$$
>  <COMPOUND>
Cc1ccc2c3c(ccc2n1)OCC(CN1CC=C(c2cccc4ccsc24)CC1)O3 (stereo not shown) (as salt: oxalate)

>  <melting point>
183 to 185 °C

$$$$
>  <COMPOUND>
Cc1ccc2c3c(ccc2n1)OCC(CN1CC=C(c2cc4ccccc4o2)CC1)O3 (stereo not shown)

>  <melting point>
149 to 150 °C

$$$$
>  <COMPOUND>
Fc1ccc2scc(C3=CCN(CC4COc5ccc6ncccc6c5O4)CC3)c2c1 (stereo not shown) (as salt: oxalate)

>  <melting point>
183 to 185 °C

$$$$
>  <COMPOUND>
Cc1nc2ccc3c(c2o1)OC(CN1CC=C(c2csc4ccccc24)CC1)CO3 (stereo not shown) (as salt: oxalate)

>  <melting point>
126 to 129 °C

$$$$
>  <COMPOUND>
Cc1ccc2c3c(ccc2n1)OCC(CN1CC=C(c2cc4ccccc4s2)CC1)O3 (stereo not shown)

>  <melting point>
174 to 176 °C

$$$$
>  <COMPOUND>
C1=C(c2csc3ccccc23)CCN(CC2COc3ccc4ncccc4c3O2)C1 (stereo not shown) (as salt: oxalate)

>  <melting point>
178 to 180 °C

$$$$
>  <COMPOUND>
Cc1ccc2c3c(ccc2n1)OCC(CN1CCC(c2cc4ccccc4o2)CC1)O3 (stereo not shown)

>  <melting point>
103 to 104 °C

$$$$
>  <COMPOUND>
Cc1ccc2c3c(ccc2n1)OCC(CN1CC=C(c2csc4ccccc24)CC1)O3 (stereo not shown) (as salt: oxalate)

>  <melting point>
129 to 133 °C

$$$$
>  <COMPOUND>
Cc1ccc2c3c(ccc2n1)OCC(CN1CC=C(c2csc4ccc(F)cc24)CC1)O3 (stereo not shown) (as salt: oxalate)

>  <melting point>
197 to 201 °C

$$$$

###

# SUBJECT_OF_TEST: human 5-HT1A receptors (Homo sapiens, UniProt P08908)
# Construct: expressed in transfected cells; host or cells: CHO cells
# Sequence (P08908 1-422): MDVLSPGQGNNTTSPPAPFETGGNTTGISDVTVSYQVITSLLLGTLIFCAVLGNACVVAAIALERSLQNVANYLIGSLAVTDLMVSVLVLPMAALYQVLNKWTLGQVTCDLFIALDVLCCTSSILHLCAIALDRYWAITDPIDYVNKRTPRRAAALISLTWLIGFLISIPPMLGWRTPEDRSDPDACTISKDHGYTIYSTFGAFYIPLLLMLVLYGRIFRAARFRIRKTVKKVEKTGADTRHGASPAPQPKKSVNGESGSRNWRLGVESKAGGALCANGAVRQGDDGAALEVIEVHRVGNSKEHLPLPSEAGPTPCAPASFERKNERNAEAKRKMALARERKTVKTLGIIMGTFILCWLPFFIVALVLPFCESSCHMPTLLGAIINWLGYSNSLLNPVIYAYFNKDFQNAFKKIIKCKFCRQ
# TEST_DETAILS: [3H] 8-OHDPAT displacement from 5-HT1A receptor in transfected CHO cells
# Assay type: binding
# CONDITIONS_USED: displacement of [3H] 8-OHDPAT, CHO cells stably transfected with human 5-HT1A receptors; read-out: 5-HT1A Receptor Affinity KI
pKi: −log10 of the molar value.
MEASURED_PARAMETER: pKi

>  <COMPOUND>
Cc1ccc2c3c(ccc2n1)OCC(CN1CCC(c2cc4ccccc4o2)CC1)O3 (stereo not shown)

>  <SUBJECT_OF_TEST>
human 5-HT1A receptors (Homo sapiens, UniProt P08908)

>  <NUMBER>
8.06

$$$$
>  <COMPOUND>
Cc1ccc2c3c(ccc2n1)OCC(CN1CC=C(c2csc4ccc(Cl)cc24)CC1)O3 (stereo not shown)

>  <SUBJECT_OF_TEST>
human 5-HT1A receptors (Homo sapiens, UniProt P08908)

>  <NUMBER>
6.87

$$$$
>  <COMPOUND>
Cc1ccc2c3c(ccc2n1)OCC(CN1CC=C(c2cc4ccccc4s2)CC1)O3 (stereo not shown)

>  <SUBJECT_OF_TEST>
human 5-HT1A receptors (Homo sapiens, UniProt P08908)

>  <NUMBER>
7.67

$$$$
>  <COMPOUND>
Cc1ccc2c3c(ccc2n1)OCC(CN1CCC(c2nc4ccccc4o2)CC1)O3 (stereo not shown)

>  <SUBJECT_OF_TEST>
human 5-HT1A receptors (Homo sapiens, UniProt P08908)

>  <NUMBER>
7.70

$$$$
